Give measured %Inh for each item. Keep answers brief.
# Tested on: RSK3(Kin.Dom.1-N-terminal)
# Construct: gene RPS6KA2
# CONDITIONS: concentration: 1 μM, replicates: in singlicate; n = 1;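 note: KINOMEscan kinase panel screen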
One number for each entry, in %.

# count of solved cases: 2
INSERT INTO measurements (compound, tested_system, experimental_readout, display_unit, quantitative_readout) VALUES
  ('CC(C)c1nc(-c2cccc(NS(=O)(=O)c3c(F)cccc3F)c2)c(-c2ccnc(Nc3ccc(N4CCOCC4)nc3)n2)s1.Cl [GSK1723980]', 'RSK3(Kin.Dom.1-N-terminal)', '%Inh', '%', 27),
  ('Cc1cc(-c2ccnc(Nc3cccc(C#N)c3)n2)cc(C)c1O [GSK1440913]', 'RSK3(Kin.Dom.1-N-terminal)', '%Inh', '%', 26);

Items follow; give %Inh for each.
1. Cl.N#CCc1ccc(Nc2nccc(Nc3ccc(Oc4ccccc4)cc3)n2)cc1 [GW639905]
2. Cc1ccc(O)cc1Nc1ccnc2ccc(C(C)(C)C)cc12 [GW856805]

Data returned:
1: 4; 2: 16

----------
Give measured %Inh for each item. Keep answers brief.
# Test system: MAP4K3
# CONDITIONS: concentration: 1 μM, replicates: in singlicate; n = 1
Give bare numbers, in %.

# count of solved cases: 3
INSERT INTO results (entry_smiles, quantitative_readout) VALUES
  ('O=C1NC(=O)C(c2ccccc2Cl)=C1Nc1cccc(Cl)c1', 5),
  ('CCn1cnc2c(NCc3ccccc3)ncnc21', 0),
  ('CC(C)c1nc(-c2ccc(F)c(NS(=O)(=O)c3c(F)cccc3F)c2)c(-c2ccnc(Nc3ccc(N4CCOCC4)nc3)n2)s1', 22);

Now, please, on to the next molecule.
Data request: # %Inh lookup, item `Cn1cc(-c2ccc3c(c2)CCN3C(=O)Cc2cc(F)cc(C(F)(F)F)c2)c2c(N)ncnc21`
Data returned: 25

----------
# System: IKK-epsilon
# Construct: gene IKBKE
# CONDITIONS: concentration: 1 μM, replicates: in singlicate; n = 1
EXPERIMENTAL_READOUT: %Inh (%)
Give bare numbers, in %.

# count of solved cases: 5
INSERT INTO results (compound, display_unit, quantitative_readout) VALUES
  ('O=C(O)C(F)(F)F.O=c1[nH]ccc2nc(N[C@@H]3CCNC3)nc(Nc3cc(Cl)cc(Cl)c3)c12', '%', 29),
  ('O=C(Nc1n[nH]c2nc(-c3ccccc3O)ccc12)C1CC1', '%', 10),
  ('NCCC(NC(=O)c1cc(Br)c(-c2ccnc3[nH]ccc23)s1)c1ccccc1.O=C(O)C(F)(F)F.O=C(O)C(F)(F)F (centres unmarked)', '%', 17),
  ('COC(=O)Nc1nc2ccc(Oc3ccc(CC(=O)Nc4cc(C(F)(F)F)ccc4F)cc3)cc2[nH]1', '%', 0),
  ('CN1CCN(Cc2ccc(NC(=O)Nc3ccc(N(C)c4ccnc(Nc5ccc(CS(C)(=O)=O)cc5)n4)cc3)cc2)CC1.Cl', '%', 28);

Items follow; give %Inh for each.
1. Fc1cc(Cl)ccc1Nc1ccnc2cc(-c3ccc(CN4CCOCC4)o3)ccc12
2. Nc1ncnc2scc(-c3ccc(NC(=O)Cc4cc(F)ccc4F)cc3)c12.O=C(O)C(F)(F)F
3. Cl.N#CCc1ccc(Nc2nccc(Nc3ccc(Oc4ccccc4)cc3)n2)cc1

Data returned:
1. 0
2. 45
3. 14

meta.source: paper PMC5540273
